Tested on: 786-0 renal
Test: NCI tumour cell line growth inhibition, 48 h
Outcome label depends on TGI relative to 30 µM: at/above gives 1, below gives -1.

Recorded results for 4 compounds are shown here.
{"compound": "Nc1nc(N)nc(CCCCc2nc(N)nc(N)n2)n1", "answer-label": 1}
{"compound": "COc1ccc2c(c1)/C(=C\\c1c(Cl)nc3n1CCS3)C(=O)N2", "answer-label": 1}
{"compound": "CCC1(O)C(=O)OCc2c1cc1n(c2=O)Cc2cc3cc4c(cc3nc2-1)OCO4 (stereo not given)", "answer-label": -1}
{"compound": "O=C1c2ccccc2C(=O)c2c1ccc1conc21", "answer-label": -1}

query: Quick check: does `CC(=O)CC[N+](C)(C)C` have TGI greater than or equal to 30 µM?
result: 1

query: For this compound, is measured TGI 30 µM or higher? `CN[C@@H](C)C(=O)N[C@H](C(=O)N1CCC[C@H]1c1nc(C(=O)c2ccc(F)cc2)cs1)C1CCCCC1`
result: 1

query: Please tell me: is the compound `CN(c1cccc(C(=O)O)c1)c1cc(O/N=[N+](\[O-])N(C)C)c([N+](=O)[O-])cc1[N+](=O)[O-]` at or over 30 µM in terms of TGI?
result: 1

query: Tell me whether TGI is at least 30 µM here: `Cc1[nH]c(=O)nc(N/N=C/c2c3ccccc3c(Cl)c3ccccc23)c1C(=O)Nc1ccc(Cl)cc1`
result: 1

query: TGI >= 30 µM for `O=[N+]([O-])c1ccc(Sc2cccc[n+]2[O-])c2nonc12` ?
result: -1

query: # bool: TGI of `CCOC(=O)/C(C(N)=O)=C(\O)C(=O)/C=C(\O)c1ccc(Cl)cc1` >= 30 µM
result: 1

Cited source: PubChem BioAssay (NCI)
